- testedOn: T1, human CD20 antigen (human, UniProt P11836 1-297)
- T1 sequence (looked up): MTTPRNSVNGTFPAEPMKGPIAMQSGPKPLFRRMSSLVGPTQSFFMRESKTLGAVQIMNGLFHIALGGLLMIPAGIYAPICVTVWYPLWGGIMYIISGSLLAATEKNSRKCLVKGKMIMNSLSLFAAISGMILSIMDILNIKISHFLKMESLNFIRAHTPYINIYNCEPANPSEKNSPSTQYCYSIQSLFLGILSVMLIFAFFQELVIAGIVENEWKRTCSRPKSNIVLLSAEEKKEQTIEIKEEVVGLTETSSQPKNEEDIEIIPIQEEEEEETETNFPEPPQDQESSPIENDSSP
- protocolText: cell-based or functional assay
Reported values of CDC (10 ug/ml), WIL2NS for individual entries

Some solved cases for reference:
binder	readout	result
humanized 1K1791 antibody sf (SdrL x FraH) (antibody, V domains shown, Kappa, gamma 1 construct; also called hz1791 sf; Sf043) VH: QIQLVQSGSELKKPGASVKVSCKASGYTFTNFGVNWVKQAPGKGLKWMGWINTYTGEPSYADDFKGRFAFSLDASASTAYLQISSLKAEDMATYFCTRRTNYYGTSYYYAMDYWGQGTTVTVSS VL: STVMTQSPDSLAVSLGERATINCKSSQSNSNDVAWYQQKPGQSPKVLIYFASNRYSGVPDRFSGSGYGTDFTLTISSLQAEDVAVYFCQQDYSSPLTFGAGTKLEIK	CDC (10 ug/ml), WIL2NS	295 relative, c2B8 = 100
chimerized 1K1791 antibody (c1791) (antibody, V domains shown) VH: QIQLVQSGPELKKPGETVKISCKASGYTFTNFGVNWVKQAPGKGLKWMGWINTYTGEPSYADDFKGRFAFSLEASANTAYLQINNLKNDDMSTYFCTRRTNYYGTSYYYAMDYWGQGTSVTVSS VL: STVMTQTPKFLLVSAGDRVTITCKASQSVSNDVAWYQQKPGQSPKVLIYFASNRYTGVPDRFTGSGYGTDFTFTINTVQAEDLAVYFCQQDYSSPLTFGAGTKLELK	CDC (10 ug/ml), WIL2NS	529 relative, c2B8 = 100
humanized 1K1791 antibody fv (FraL x VenH) (antibody, V domains shown, Kappa, gamma 1 construct; also called hz1791 fv; Fv010) VH: QIQLVQSGPELKKPGASVKISCKASGYTFTNFGVNWVKQAPGKGLKWMGWINTYTGEPSYADDFKGRFAFSLDASVSTAYLQISSLKAEDTSTYFCTRRTNYYGTSYYYAMDYWGQGTTVTVSS VL: STVMTQSPSFLSASVGDRVTITCKASQSVSNDVAWYQQKPGQSPKVLIYFASNRYTGVPDRFSGSGYGTDFTLTISSLQAEDVAVYFCQQDYSSPLTFGAGTKLEIK	CDC (10 ug/ml), WIL2NS	172 relative, c2B8 = 100
humanized 1K1791 antibody ss (SdrL x SdrH) (antibody, V domains shown, Kappa, gamma 1 construct; also called hz1791 ss; Ss020) VH: QIQLVQSGSELKKPGASVKVSCKASGYTFTNFGVNWVRQAPGKGLKWMGWINTYTGEPSYAQGFTGRFAFSLDASVSTAYLQISSLKAEDTATYFCTRRTNYYGTSYYYAMDYWGQGTTVTVSS VL: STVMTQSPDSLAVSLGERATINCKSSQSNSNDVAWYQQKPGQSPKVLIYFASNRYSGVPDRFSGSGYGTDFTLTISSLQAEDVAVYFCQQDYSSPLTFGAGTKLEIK	CDC (10 ug/ml), WIL2NS	120 relative, c2B8 = 100

Query :: Field request: CDC (10 ug/ml), WIL2NS | item: humanized 1K1791 antibody ff (FraL x FraH) (antibody, V domains shown, Kappa, gamma 1 construct; also called hz1791 ff; Ff019) VH: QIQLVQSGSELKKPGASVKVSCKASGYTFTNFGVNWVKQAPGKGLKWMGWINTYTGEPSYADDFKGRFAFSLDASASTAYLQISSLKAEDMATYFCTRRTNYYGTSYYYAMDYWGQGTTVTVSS VL: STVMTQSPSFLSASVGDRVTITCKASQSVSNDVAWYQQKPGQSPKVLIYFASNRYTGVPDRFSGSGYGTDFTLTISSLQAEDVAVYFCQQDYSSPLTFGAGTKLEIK
Result :: 203 relative, c2B8 = 100
